- tested target: recombinant 2-oxoglutarate/malate translocator (transformed SP-DC3 cells) (Spinacia oleracea)
- Construct: made in house; host or cells: Schizosaccharomyces pombe (SP-DC3 cells, plasmid pEVP11-211)
- Sequence (Q41364 94-569): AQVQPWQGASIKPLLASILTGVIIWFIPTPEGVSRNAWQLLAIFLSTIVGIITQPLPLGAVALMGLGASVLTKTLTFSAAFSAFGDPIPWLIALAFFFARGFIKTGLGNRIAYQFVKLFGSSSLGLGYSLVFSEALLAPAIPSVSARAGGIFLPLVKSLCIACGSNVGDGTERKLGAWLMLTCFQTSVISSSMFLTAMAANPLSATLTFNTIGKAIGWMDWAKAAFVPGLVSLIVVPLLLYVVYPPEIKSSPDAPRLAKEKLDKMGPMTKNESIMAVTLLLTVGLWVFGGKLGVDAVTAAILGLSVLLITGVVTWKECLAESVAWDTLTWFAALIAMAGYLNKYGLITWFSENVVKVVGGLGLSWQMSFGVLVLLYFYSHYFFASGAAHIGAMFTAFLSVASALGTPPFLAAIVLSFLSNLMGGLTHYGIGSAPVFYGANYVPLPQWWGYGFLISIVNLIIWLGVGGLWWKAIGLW
- protocol details: Reconstituted malate transport activity (inhibitor stop method), recombinant protein from transformed SP-DC3 yeast cells in liposomes
- Assay type: biochemical, spinach (expressed in Schizosaccharomyces pombe)
- condition label: recombinant protein (transformed SP-DC3 cells); liposomes preloaded with the indicated dicarboxylate; standard deviation in brackets
quantity: transport activity, percentage of activity measured with malate-preloaded liposomes

Observe how each entry below is paired with its result.
compound	value measured
N[C@@H](CCC(=O)O)C(=O)O [Glutamate]	3 (±1) %
O=C(O)CCC(=O)C(=O)O [2-Oxoglutarate]	44 (±14) %

Look at each compound and report its transport activity, percentage of activity measured with malate-preloaded liposomes.
1. O=C(O)CCC(=O)O [Succinate]
2. O=C(O)/C=C/C(=O)O [Fumarate]

["83 (±12) %", "119 (±24) %"]

Data credit: patent US5981219A
